# target.or.test.system: InsR (Homo sapiens, UniProt P06213)
# Sequence (P06213 28-1382, species assumed): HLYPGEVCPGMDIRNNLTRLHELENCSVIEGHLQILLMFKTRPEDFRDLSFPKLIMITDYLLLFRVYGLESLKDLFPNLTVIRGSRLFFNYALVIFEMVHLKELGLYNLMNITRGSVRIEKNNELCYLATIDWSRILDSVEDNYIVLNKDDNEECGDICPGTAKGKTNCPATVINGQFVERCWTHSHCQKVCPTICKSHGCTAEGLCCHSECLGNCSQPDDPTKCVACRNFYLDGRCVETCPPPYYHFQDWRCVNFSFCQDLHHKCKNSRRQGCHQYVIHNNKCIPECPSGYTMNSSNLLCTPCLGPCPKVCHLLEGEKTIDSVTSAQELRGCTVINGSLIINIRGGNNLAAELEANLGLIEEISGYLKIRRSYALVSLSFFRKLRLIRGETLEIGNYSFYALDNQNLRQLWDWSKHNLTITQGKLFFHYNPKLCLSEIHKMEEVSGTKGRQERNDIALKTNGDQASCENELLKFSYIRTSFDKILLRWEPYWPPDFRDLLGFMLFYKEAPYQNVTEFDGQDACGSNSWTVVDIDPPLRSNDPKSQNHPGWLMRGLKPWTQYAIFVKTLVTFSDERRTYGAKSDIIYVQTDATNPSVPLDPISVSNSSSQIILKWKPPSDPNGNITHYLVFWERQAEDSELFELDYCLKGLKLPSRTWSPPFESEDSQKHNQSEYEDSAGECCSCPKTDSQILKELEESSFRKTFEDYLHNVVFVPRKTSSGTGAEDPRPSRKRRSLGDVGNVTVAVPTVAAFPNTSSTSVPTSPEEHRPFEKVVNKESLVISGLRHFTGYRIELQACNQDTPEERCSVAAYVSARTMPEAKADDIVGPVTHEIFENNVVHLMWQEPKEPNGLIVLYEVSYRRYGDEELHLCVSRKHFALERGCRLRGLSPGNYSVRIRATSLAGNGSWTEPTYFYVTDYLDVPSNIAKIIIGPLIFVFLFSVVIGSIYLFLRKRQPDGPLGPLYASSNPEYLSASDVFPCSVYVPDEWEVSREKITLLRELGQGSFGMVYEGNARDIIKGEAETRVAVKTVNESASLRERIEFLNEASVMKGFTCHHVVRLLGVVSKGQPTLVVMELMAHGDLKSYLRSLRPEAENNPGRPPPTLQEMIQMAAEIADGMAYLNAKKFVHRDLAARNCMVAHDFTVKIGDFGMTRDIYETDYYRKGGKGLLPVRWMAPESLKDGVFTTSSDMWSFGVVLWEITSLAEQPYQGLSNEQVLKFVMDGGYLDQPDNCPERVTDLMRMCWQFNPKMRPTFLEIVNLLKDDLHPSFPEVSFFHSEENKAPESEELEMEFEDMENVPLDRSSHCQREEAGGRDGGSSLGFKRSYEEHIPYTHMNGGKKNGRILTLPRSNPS
# protocol.description: Enzymatic kinase assay (filter-binding / flashplate, 33P incorporation)
# Format: biochemical
# conditions: enzymatic kinase selectivity
Assignment: determine reported IC50 for the given compounds.
Numbers only, in nM.

Example cases with answers are listed next.
CC(=O)NC[C@H]1C[C@@H](n2cc(-c3ccc4c(c3)OC(c3ccccc3)CC4)c3c(N)ncnc32)C1 (mixture of isomers) [Example 16] :: 780
CC(=O)N1CCN([C@H]2C[C@@H](n3cc(-c4ccc5c(c4)OC(c4ccccc4)CC5)c4c(N)ncnc43)C2)CC1 (relative stereo) [Example 38] :: 100
Nc1ncnc2c1c(-c1ccc3c(c1)OC(c1ccccc1)C=C3)cn2[C@H]1C[C@@H](CN2CCS(=O)(=O)CC2)C1 (mixture of isomers) [Example 21] :: 73

Please report the measured IC50 for Nc1ncnc2c1c(-c1ccc3c(c1)OC(c1ccccc1)CC3)cn2C1CC(O)(CO)C1 (single isomer, unassigned) [Example 26]
1450
